The origin of these recorded values is paper PMC11884936.

- measured.target: Pellino 2 FHA (Homo sapiens, UniProt Q9HAT8)
- Construct: PELI1 and 2 FHA domains (residues 13–273 and 15–275, respectively); GST (N, cleaved yes); made in house; host or cells: E. coli BL21 (DE3)
- Sequence (Q9HAT8 15-275): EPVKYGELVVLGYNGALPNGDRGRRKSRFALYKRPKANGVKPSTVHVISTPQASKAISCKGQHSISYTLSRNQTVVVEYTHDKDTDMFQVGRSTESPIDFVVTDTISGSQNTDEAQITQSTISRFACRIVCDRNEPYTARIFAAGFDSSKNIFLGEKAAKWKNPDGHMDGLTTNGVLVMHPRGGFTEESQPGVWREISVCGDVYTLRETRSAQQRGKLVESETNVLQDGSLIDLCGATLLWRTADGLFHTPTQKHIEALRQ
- experiment.description: Isothermal titration calorimetry of phosphopeptides with PELI2 FHA fragment
- Format: binding
- experimental.conditions: ITC temperature x change in entropy, PELI2 FHA, 25 mM HEPES pH 7.0, 200 mM NaCl, 1 mM TCEP
- Experimental: The regions corresponding to the PELI1 and 2 FHA domains (residues 13–273 and 15–275, respectively) were cloned into the pGEX-6P1 vector using BamHI/XhoI restriction sites and expressed as a 3C protease-cleavable N-terminal GST fusion protein in BL21 (DE3) cells (NEB). […] For ITC analysis protein and peptides were buffer exchanged into 25 mM HEPES pH 7.0, 200 mM NaCl, 1 mM TCEP. […] Data were analyzed with a single-site binding model using Microcal PEAQ-ITC software. […]
Square brackets hold non-standard residues; d marks the D form. Peptide text beside a SMILES is read from it. pT = C[C@@H](OP(=O)(O)O)[C@H](N)C(=O)O
In this section, each of the compounds is paired with its reported TDS.
Report the figure in kcal/mol without appending any unit label.

compound: CC(=O)N[C@@H](C)C(=O)N[C@@H](Cc1ccc(O)cc1)C(=O)N[C@@H](CCC(=O)O)C(=O)N[C@@H](CC(=O)O)C(=O)N[C@@H](CO)C(=O)N[C@@H](CCC(=O)O)C(=O)N[C@H](C(=O)N[C@@H](CCC(N)=O)C(=O)N1CCC[C@H]1C(=O)N[C@@H](Cc1ccccc1)C(=O)N[C@@H](CC(=O)O)C(N)=O)[C@@H](C)OP(=O)(O)O [MDC1-pT765] (Ac-AYEDSE[pT]QPFD-NH2)
unit.abbreviation: kcal/mol
number: -23.9

Entry under review: CC(=O)N[C@@H](C)C(=O)N[C@@H](Cc1ccc(O)cc1)C(=O)N[C@@H](CC(=O)O)C(=O)N[C@@H](CC(C)C)C(=O)N[C@@H](CCC(N)=O)C(=O)N[C@@H](C)C(=O)N[C@H](C(=O)N[C@@H](CCC(N)=O)C(=O)N[C@@H](CS)C(=O)N[C@@H](Cc1ccccc1)C(=O)N[C@@H](C)C(N)=O)[C@@H](C)OP(=O)(O)O [MDC1-pT699] (Ac-AYDLQA[pT]QCFA-NH2) . Reported TDS?
-11.8

Entry under review: CC(=O)N[C@@H](C)C(=O)N[C@@H](Cc1ccc(O)cc1)C(=O)N[C@@H](CCC(=O)O)C(=O)N[C@H](C(=O)N[C@@H](CC(C)C)C(=O)N[C@@H](C)C(=O)N[C@H](C(=O)N[C@@H](CCC(N)=O)C(=O)N1CCC[C@H]1C(=O)N[C@@H](Cc1ccccc1)C(=O)N[C@@H](CS)C(N)=O)[C@@H](C)OP(=O)(O)O)C(C)C [MDC1-pT752] (Ac-AYEVLA[pT]QPFC-NH2) . Reported TDS?
-20

Entry under review: CC(=O)N[C@@H](C)C(=O)N[C@@H](Cc1ccc(O)cc1)C(=O)N[C@@H](CCC(=O)O)C(=O)N[C@@H](CC(=O)O)C(=O)N[C@@H](CCC(=O)O)C(=O)N1CCC[C@H]1C(=O)N[C@H](C(=O)N[C@@H](CCC(N)=O)C(=O)N[C@@H](C)C(=O)N[C@@H](Cc1ccccc1)C(=O)N[C@@H](C)C(N)=O)[C@@H](C)OP(=O)(O)O [MDC1-pT719] (Ac-AYEDEP[pT]QAFA-NH2) . Reported TDS?
-26.5
